# Tested on: A-549
# experimental-details: In vitro cytotoxic activity, SRB assay
# Type: cell-based, human
# condition-notes: A-549, 48 hours exposure, read-out: LC50 (the source's name)
result-type: CC50

Please review the entries below; each comes with its answer.
C/C=C1\NC(=O)[C@H](Cc2ccccc2)NC(=O)[C@@H](C(C)C)NC(=O)[C@@H]([C@@H](C)CC)NC(=O)[C@H](NC(=O)[C@H](NC(=O)[C@H](CCCN)NC(=O)[C@H]2CCCN2C(=O)[C@H](NC(=O)[C@@H](NC(=O)[C@@H](NC(=O)[C@H](NC(=O)CCCC(C)C)C(C)C)[C@@H](C)O)C(C)C)C(C)C)[C@@H](C)CC)[C@@H](C)OC(=O)[C@H](C(C)C)NC1=O [5-methylhexanoic KF, reference compound]	3.78 µM
C/C=C1\NC(=O)[C@H](Cc2ccccc2)NC(=O)[C@@H](C(C)C)NC(=O)[C@@H]([C@@H](C)CC)NC(=O)[C@H](NC(=O)[C@H](NC(=O)[C@H](CCCN)NC(=O)[C@H]2CCCN2C(=O)[C@H](NC(=O)[C@@H](NC(=O)[C@@H](NC(=O)[C@H](NC(=O)CC[C@H](C)CC)C(C)C)[C@@H](C)O)C(C)C)C(C)C)[C@@H](C)CC)[C@@H](C)OC(=O)[C@H](C(C)C)NC1=O	4.24 µM

Next, consider the following molecule.
Item under review: C/C=C1\NC(=O)[C@H](Cc2ccccc2)NC(=O)[C@@H](C(C)C)NC(=O)[C@@H]([C@@H](C)CC)NC(=O)[C@H](NC(=O)[C@H](NC(=O)[C@H](CCCN)NC(=O)[C@H]2CCCN2C(=O)[C@H](NC(=O)[C@@H](NC(=O)[C@@H](NC(=O)[C@H](NC(=O)CC[C@@H](C)CC)C(C)C)[C@@H](C)O)C(C)C)C(C)C)[C@@H](C)CC)[C@@H](C)OC(=O)[C@H](C(C)C)NC1=O . Reported CC50?
3.09 µM
